I'd be grateful if you could share measured yeast fitness for these entries.
B1: tRNA (parent)
chain: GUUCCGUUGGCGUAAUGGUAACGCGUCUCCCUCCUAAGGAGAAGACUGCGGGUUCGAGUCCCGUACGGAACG

# Variants of: B1
# test-name: yeast fitness relative to wild type (ratio to wild type); higher = fitter; tRNA-Arg(CCU), competitive growth, 37 C, YPD
Variants at the floor of the assay were thinned out.
Write the value as a bare number.

Recorded yeast fitness of G6A C31U A43U , please.
0.529

Recorded yeast fitness of U8C G10C A42G A43G C55U , please.
0.724

Recorded yeast fitness of C4U G12A C46U , please.
0.728

Recorded yeast fitness of C4U U35C A70U , please.
0.711

Recorded yeast fitness of U3C G51A A69C , please.
0.602

Recorded yeast fitness of G17C G18C , please.
0.576

Recorded yeast fitness of A14C A21C C46A , please.
0.604

Recorded yeast fitness of C4G C22G G52C G68C , please.
0.575

Recorded yeast fitness of C5G U16A A43G G63U , please.
0.524

Recorded yeast fitness of G12C G50A , please.
0.736

Recorded yeast fitness of G17A G56A C66U , please.
0.678
